# TGI per record follows
- Tested on: RXF 393 renal
- procedure text: NCI tumour cell line growth inhibition, 48 h
assay readout: TGI (µM)

INSERT INTO assay_data (compound, censoring_sign, observed) VALUES
  ('COc1cc(-c2nc3ccc(N4CCN(C)CC4)cc3[nH]2)c(OC)c2[nH]c(COC(C)=O)nc12', '=', 59.4),
  ('O=C(/C=C/c1ccc(Cl)cc1)c1ccccc(=O)c1O', '>', 100),
  ('COc1cccc(/C=N/NC(=O)CSCC(=O)N/N=C/c2cccc(OC)c2OC)c1OC', '>', 100),
  ('CC(C)C12Cc3c(ccc4ccccc34)OC1(C)Oc1ccc3ccccc3c1C2 (stereo not given)', '>', 100),
  ('O=C1/C(=C/c2ccccc2)CN(C(=O)C(Cl)Cl)C/C1=C\c1ccccc1', '=', 2.33),
  ('CC(=O)c1[nH]c(NC(C)C)c(C(=S)Nc2ccccc2)c1N', '=', 50.3),
  ('N#Cc1ccc(Cc2ccccn2)cc1Cl', '>', 100),
  ('C=C(CN1CCN(c2ccc(C(F)(F)F)cc2)CC1)c1ccc(C(=O)Nc2ccccc2N)cc1', '=', 6),
  ('COC(=O)N1CC(=O)C(C(=O)NC23CC4CC(CC(C4)C2)C3)C1 (stereo not given)', '>', 100),
  ('c1cc(-c2ccc(-c3ccc(-c4ccc(-c5ccncc5)o4)cc3)o2)ccn1', '>', 100);

* * *

- Test system: HS 578T breast
- procedure text: NCI tumour cell line growth inhibition, 48 h
assay readout: TGI

INSERT INTO measurements (compound, assay_readout, observed) VALUES
  ('C=C(CN1CCN(c2ccc(C(F)(F)F)cc2)CC1)c1ccc(C(=O)Nc2ccccc2N)cc1', 'TGI', '> 100 µM'),
  ('CCCCCCCCCCCCCCCCCc1nccn1CCOCCO', 'TGI', '12.7 µg/mL'),
  ('COc1ccc(/C=C2/CSCC3=C2NC(=S)NC3c2ccc(OC)c(OC)c2OC)c(OC)c1OC (centres undefined)', 'TGI', '> 100 µM'),
  ('CC(=O)Nc1cc2cc(N)ccc2oc1=O', 'TGI', '> 100 µM'),
  ('COc1cccc(/C=C/C(=O)c2ccc(SC)cc2)c1OC', 'TGI', '56.6 µM'),
  ('COc1cc(Oc2c(C)c(Cl)c(OC)c(Cl)c2OC)c2c(c1Cl)COC2=O', 'TGI', '> 100 µM'),
  ('CC1=CC(C)=NN=C(N)N1S(=O)(=O)c1cc(C)c(Cl)cc1SCc1ccccc1', 'TGI', '> 100 µM'),
  ('CC1(c2sccc2Cl)CC(c2sccc2Cl)=C(C#N)C(=C(C#N)C#N)N1 (centres undefined)', 'TGI', '48.5 µM'),
  ('Nc1c(C(=O)Nc2ccccc2)sc2nc3c(cc12)CCCCC3', 'TGI', '31.3 µM'),
  ('O=c1oc2ccc(I)cc2c(=O)n1-c1ccc(F)cc1F', 'TGI', '6.55 µM'),
  ('CCOC(=O)CC(c1ccccc1)C(C)(C(=O)OCC)C(=O)OCC (centres undefined)', 'TGI', '> 100 µM'),
  ('O=C(CCl)NCCNc1nccc(Nc2ccc(S(=O)(=O)Nc3ccccn3)cc2)n1', 'TGI', '> 100 µM'),
  ('O=C1/C(=C/c2ccccc2)CN(C(=O)C(Cl)Cl)C/C1=C\c1ccccc1', 'TGI', '6.86 µM'),
  ('N=C(N)c1ccc(-c2ccc(/C=C/c3ccccc3)s2)cc1', 'TGI', '7.32 µM'),
  ('Cc1cccc(Br)[n+]1[O-]', 'TGI', '> 100 µM'),
  ('Oc1ccc([C@H]2c3c(O)cc(O)cc3C3c4c(cc(O)cc4[C@@H]2[C@H]2c4cc(O)cc5c4C(c4cc(O)cc(O)c4[C@@H]2c2ccc(O)cc2)[C@@H](c2ccc(O)cc2)O5)O[C@@H]3c2ccc(O)cc2)cc1 (some centres undefined)', 'TGI', '> 100 µM'),
  ('CCOC(=O)c1nc2ccc(C(F)(F)F)cc2nc1Nc1cc(OC)c(OC)c(OC)c1', 'TGI', '> 100 µM'),
  ('CC1(C)S[C@@H]2[C@H](N3C(=O)c4ccccc4C3=O)CN2[C@H]1NC(=O)N[C@@H]1N2C[C@@H](N3C(=O)c4ccccc4C3=O)[C@H]2SC1(C)C', 'TGI', '> 100 µM'),
  ('CO[C@H]1C=CO[C@@]2(C)Oc3c(C)c(O)c4c(O)c(c(CN5CCN(C)CC5)c(O)c4c3C2=O)NC(=O)/C(C)=C\C=C[C@H](C)[C@H](O)C(C)[C@@H](O)C(C)[C@H](OC(C)=O)[C@@H]1C (some centres undefined)', 'TGI', '> 100 µM');

* * *

- System: PC-3 prostate
- procedure text: NCI tumour cell line growth inhibition, 48 h
Below is a list of entries, each paired with its recorded TGI value.
assay readout: TGI

INSERT INTO measurements (compound, assay_readout, observed) VALUES
  ('Cc1ccc(C2(c3ccc(Cl)cc3)c3ccccc3C3=NCCN32)cc1 (configuration not stated)', 'TGI', '21.6 µM'),
  ('COCCN(CCNC(=O)c1cccc2c(N)c3cccc(C)c3nc12)CCOC', 'TGI', '8.9 µM'),
  ('COc1cc(OC)cc(-c2ccc(-c3ccc(C(=N)N)cn3)o2)c1', 'TGI', '3.14 µM'),
  ('CCOC(=O)c1cc(-n2nnc3ccccc32)cn1C', 'TGI', '> 10 µM'),
  ('COc1cc(CSc2ccc(O)cc2)cc(OC)c1OC', 'TGI', '> 100 µM'),
  ('O=[N+]([O-])C(/C=C(\Cl)[N+](=O)[O-])=C1Nc2ccccc2N1', 'TGI', '> 100 µM'),
  ('Oc1ccc(O)c(-c2cn3c(n2)SCC3)c1', 'TGI', '38 µM'),
  ('OC1c2ccccc2CCC1CN1CCN(CCOC(c2ccc(F)cc2)c2ccc(F)cc2)CC1 (configuration not stated)', 'TGI', '> 100 µM'),
  ('CSC1(C)C(=O)Nc2c(OCc3ccccc3)cc([N+](=O)[O-])cc21 (configuration not stated)', 'TGI', '> 100 µM'),
  ('Cc1c(C)c(C)c(Cn2[nH]c(=O)n(C)c2=O)c(C)c1C', 'TGI', '> 100 µM'),
  ('CC(=O)Nc1ccc2nc(-c3ccccn3)c(-c3ccccn3)nc2c1', 'TGI', '> 100 µM'),
  ('Cc1cccc(Br)[n+]1[O-]', 'TGI', '> 100 µM'),
  ('COC(=O)C1CCN(C(=O)OC(C)(C)C)CC1', 'TGI', '> 100 µM'),
  ('CC(=O)/C(=C/c1ccccc1)C(=O)CC(C)C', 'TGI', '93.6 µM'),
  ('CC(=O)OC1CCC2(C)C(CCC3C2CC(=O)C2(C)C3CC(N3CC3)C2C(C)=O)C1 (configuration not stated)', 'TGI', '30 µM'),
  ('Oc1ccc(Nc2ccc3ccccc3c2)cc1', 'TGI', '68.2 µM'),
  ('O=C1C(=C(C(F)(F)Cl)C(F)(F)Cl)C2CCC1C2 (configuration not stated)', 'TGI', '5.48 µM'),
  ('CCOC(=O)NN(C(=O)OCC)C(C(=O)C1=CCCCC1)N(NC(=O)OCC)C(=O)OCC', 'TGI', '> 100 µM'),
  ('C=C(CN1CCN(c2ccc(C(F)(F)F)cc2)CC1)c1ccc(C(=O)Nc2ccccc2N)cc1', 'TGI', '> 65.7 µM'),
  ('C=C1C(=O)O[C@H]2[C@H]1CC/C(COC(=O)NCc1c[nH]c3ccccc13)=C\CC[C@@]1(C)O[C@@H]21', 'TGI', '18.9 µM'),
  ('C[C@@]1(C(=O)O)CCC[C@]2(C)C1CC[C@@]13C[C@@](O)(CC[C@]12O)[C@@]1(CO1)C3 (some centres not stated)', 'TGI', '> 100 µM'),
  ('COC(=O)C1CCC(=O)N1C(c1cc(OC)c(OC)c(OC)c1)c1cc(OC)c(OC)c(OC)c1 (configuration not stated)', 'TGI', '> 100 µM');

* * *

List of TGI values.
- Tested on: UACC-62 melanoma
- procedure text: NCI tumour cell line growth inhibition, 48 h
assay readout: TGI

INSERT INTO results (molecule, assay_readout, observed) VALUES
  ('N#CC(/C(CCC(=O)Nc1ccc(Cl)cc1)=N/NC(=O)c1cc2ccccc2cc1O)c1ccccc1 (stereo not given)', 'TGI', '> 100 µM'),
  ('CC(Oc1ccccc1Cl)C(=O)NN1C(=O)CC(=O)N(c2ccccc2)C1=S (stereo not given)', 'TGI', '> 100 µM'),
  ('O=S(=O)([O-])c1ccc(N=Cc2ccccc2[O-])cc1.O=S(=O)([O-])c1ccc(N=Cc2ccccc2[O-])cc1.[Co+2]', 'TGI', '> 100 µM'),
  ('CN(CC(=O)O)c1ncc2c(n1)C=CCC2', 'TGI', '> 100 µM'),
  ('S=C1NC2=C(COc3ccccc32)C(c2ccc(Cl)cc2)N1 (stereo not given)', 'TGI', '34.7 µM');

Numbers sourced from PubChem BioAssay (NCI).
